Consider the following compounds and their measured pIC50 readings.
Biological target: Integrin alpha-4/beta-1 (Homo sapiens, UniProt P05556+P13612)
Sequence (P05556 whole entry): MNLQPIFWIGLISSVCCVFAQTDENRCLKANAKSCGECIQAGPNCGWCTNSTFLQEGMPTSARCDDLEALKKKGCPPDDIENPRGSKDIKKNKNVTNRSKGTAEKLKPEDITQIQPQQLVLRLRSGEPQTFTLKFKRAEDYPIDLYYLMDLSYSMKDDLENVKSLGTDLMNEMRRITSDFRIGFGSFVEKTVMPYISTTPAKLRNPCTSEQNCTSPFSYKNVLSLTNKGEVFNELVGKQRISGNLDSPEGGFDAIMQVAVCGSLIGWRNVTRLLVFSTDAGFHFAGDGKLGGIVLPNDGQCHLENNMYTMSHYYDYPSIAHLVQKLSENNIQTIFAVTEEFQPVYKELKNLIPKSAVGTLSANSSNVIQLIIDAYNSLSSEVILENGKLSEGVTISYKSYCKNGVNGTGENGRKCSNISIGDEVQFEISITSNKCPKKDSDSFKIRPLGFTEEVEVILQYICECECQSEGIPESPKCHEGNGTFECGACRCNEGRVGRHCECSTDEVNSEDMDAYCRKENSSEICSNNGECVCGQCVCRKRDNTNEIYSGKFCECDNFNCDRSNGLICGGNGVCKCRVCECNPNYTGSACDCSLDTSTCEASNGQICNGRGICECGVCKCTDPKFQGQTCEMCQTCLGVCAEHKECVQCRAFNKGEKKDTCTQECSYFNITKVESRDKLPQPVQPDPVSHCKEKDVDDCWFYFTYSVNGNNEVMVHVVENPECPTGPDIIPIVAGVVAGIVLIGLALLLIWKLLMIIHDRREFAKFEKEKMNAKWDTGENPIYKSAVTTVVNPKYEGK
Sequence (P13612 whole entry): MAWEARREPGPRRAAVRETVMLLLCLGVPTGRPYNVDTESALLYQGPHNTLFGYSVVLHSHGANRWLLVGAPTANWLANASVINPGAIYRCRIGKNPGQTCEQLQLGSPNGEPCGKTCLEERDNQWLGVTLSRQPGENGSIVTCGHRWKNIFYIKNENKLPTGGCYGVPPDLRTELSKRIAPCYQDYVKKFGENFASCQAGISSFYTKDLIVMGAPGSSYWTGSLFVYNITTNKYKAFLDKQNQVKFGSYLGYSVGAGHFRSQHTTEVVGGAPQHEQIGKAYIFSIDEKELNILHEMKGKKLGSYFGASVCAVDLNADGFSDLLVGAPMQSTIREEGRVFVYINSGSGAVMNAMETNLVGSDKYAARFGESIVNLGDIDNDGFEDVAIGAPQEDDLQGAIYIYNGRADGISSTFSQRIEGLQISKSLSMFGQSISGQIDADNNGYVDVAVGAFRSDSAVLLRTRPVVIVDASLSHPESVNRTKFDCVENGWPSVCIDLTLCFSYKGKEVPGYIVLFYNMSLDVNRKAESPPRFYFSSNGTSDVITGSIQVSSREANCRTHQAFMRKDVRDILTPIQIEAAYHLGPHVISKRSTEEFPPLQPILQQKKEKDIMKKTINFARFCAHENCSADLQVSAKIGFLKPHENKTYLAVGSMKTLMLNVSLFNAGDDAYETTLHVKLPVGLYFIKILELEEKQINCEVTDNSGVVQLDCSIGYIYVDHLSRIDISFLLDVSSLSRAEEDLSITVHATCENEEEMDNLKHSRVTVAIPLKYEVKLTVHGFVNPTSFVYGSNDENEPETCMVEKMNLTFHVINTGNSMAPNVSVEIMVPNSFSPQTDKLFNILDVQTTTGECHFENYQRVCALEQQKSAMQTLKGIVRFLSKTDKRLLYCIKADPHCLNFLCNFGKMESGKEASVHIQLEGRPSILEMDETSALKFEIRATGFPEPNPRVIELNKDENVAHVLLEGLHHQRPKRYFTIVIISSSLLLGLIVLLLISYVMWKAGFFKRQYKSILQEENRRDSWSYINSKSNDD
Test: Antagonist activity at integrin alpha4beta1 receptor in human CCRF-CEM cells assessed as inhibition of cell adhesion to fibronectin after 1 hr by calcein AM staining-based fluorescence assay
For clarity, pIC50 is expressed as the negative log10 of concentration in mol/L.

Illustrative cases are given below, each with its answer.
{"RECORD SMILES": "Cc1cccc(C)c1NC(=O)Nc1ccc(CC(=O)Nc2ccc(OCC(=O)O)c(CCC(=O)O)c2)cc1", "pIC50": 4.09}
{"RECORD SMILES": "COC(=O)[C@@H](NC(=O)[C@H](CC(=O)O)NC(=O)[C@H](CC(C)C)NC(=O)Cc1ccc(NC(=O)Nc2ccccc2C(F)(F)F)cc1)C(C)C", "pIC50": 3.15}
{"RECORD SMILES": "Cc1cccc(C)c1NC(=O)Nc1ccc(CC(=O)Nc2ccc(OCC(=O)O)c(CCC(=O)NCCc3ccccc3)c2)cc1", "pIC50": 3.98}
{"RECORD SMILES": "CC(C)(C)OC(=O)COc1cc(NC(=O)Cc2ccc(NC(=O)Nc3ccccc3C(F)(F)F)cc2)ccc1CCC(=O)O", "pIC50": 4.10}
{"RECORD SMILES": "CC(C)(C)OC(=O)COc1ccc(NC(=O)Cc2ccc(NC(=O)Nc3ccccc3C(F)(F)F)cc2)cc1CCC(=O)O", "pIC50": 3.82}
{"RECORD SMILES": "Cc1cccc(C)c1NC(=O)Nc1ccc(CC(=O)Nc2ccc(OCC(=O)O)c(CCC(=O)NCc3ccccc3)c2)cc1", "pIC50": 4.01}
{"RECORD SMILES": "Cc1cccc(C)c1NC(=O)Nc1ccc(CC(=O)Nc2ccc(OCC(=O)OC(C)(C)C)c(CCC(=O)OCc3ccccc3)c2)cc1", "pIC50": 3.99}
{"RECORD SMILES": "Cc1cccc(C)c1NC(=O)Nc1ccc(CC(=O)Nc2ccc(CCC(=O)OCc3ccccc3)c(OCC(=O)O)c2)cc1", "pIC50": 4.09}
{"RECORD SMILES": "Cc1cccc(C)c1NC(=O)Nc1ccc(CC(=O)Nc2ccc(OCC(=O)O)c(CCC(=O)OCc3ccccc3)c2)cc1", "pIC50": 4.61}
{"RECORD SMILES": "O=C(O)COc1ccc(NC(=O)Cc2ccc(NC(=O)Nc3ccccc3C(F)(F)F)cc2)cc1CCC(=O)OCc1ccccc1", "pIC50": 4.48}

Quick check: pIC50 of "Cc1cccc(C)c1NC(=O)Nc1ccc(CC(=O)Nc2ccc(CCC(=O)O)c(O)c2)cc1" ?
3.84

Quick check: pIC50 of "O=C(O)COc1cc(NC(=O)Cc2ccc(NC(=O)Nc3ccccc3C(F)(F)F)cc2)ccc1CCC(=O)OCc1ccccc1" ?
4.19

Quick check: pIC50 of "Cc1cccc(C)c1NC(=O)Nc1ccc(CC(=O)Nc2ccc(OCC(=O)O)c(CCC(=O)OCc3ccc(Cl)cc3)c2)cc1" ?
4.41

Quick check: pIC50 of "O=C(O)CCc1cc(NC(=O)Cc2ccc(NC(=O)Nc3ccccc3C(F)(F)F)cc2)ccc1O" ?
3.68

Quick check: pIC50 of "Cc1cccc(C)c1NC(=O)Nc1ccc(CC(=O)Nc2ccc(CCC(=O)O)c(OCC(=O)OC(C)(C)C)c2)cc1" ?
3.72

Quick check: pIC50 of "Cc1cccc(C)c1NC(=O)Nc1ccc(CC(=O)Nc2ccc(O)c(CCC(=O)O)c2)cc1" ?
3.86

Quick check: pIC50 of "Cc1cccc(C)c1NC(=O)Nc1ccc(CC(=O)Nc2ccc(OCC(=O)O)c(CCC(=O)OCCc3ccccc3)c2)cc1" ?
4.61
